All values here come from the MegaScale stability set (Tsuboyama et al. 2023).

B1: EHEE_rd2_0196 (parent)
chain: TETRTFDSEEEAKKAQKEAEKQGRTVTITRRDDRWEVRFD

Variants of: B1
Assay: folding stability dG (cDNA display proteolysis); higher = more stable
Details: PBS, room temperature
Kindly return TRUE if reported folding stability dG is no lower than 3 kcal/mol; return FALSE if it is lower.

Enquiry: folding stability dG >= 3 kcal/mol for `E11S` ?
Return: FALSE

Enquiry: folding stability dG >= 3 kcal/mol for `E36L` ?
Return: FALSE

Enquiry: folding stability dG >= 3 kcal/mol for `A12V` ?
Return: FALSE

Enquiry: folding stability dG >= 3 kcal/mol for `R4W` ?
Return: TRUE

Enquiry: folding stability dG >= 3 kcal/mol for `K13L` ?
Return: TRUE

Enquiry: folding stability dG >= 3 kcal/mol for `E10V` ?
Return: FALSE

Enquiry: folding stability dG >= 3 kcal/mol for `K21S` ?
Return: TRUE

Enquiry: folding stability dG >= 3 kcal/mol for `V37K` ?
Return: FALSE

Enquiry: folding stability dG >= 3 kcal/mol for `D33C` ?
Return: FALSE

Enquiry: folding stability dG >= 3 kcal/mol for `R31T` ?
Return: FALSE

Enquiry: folding stability dG >= 3 kcal/mol for `A15S` ?
Return: FALSE

Enquiry: folding stability dG >= 3 kcal/mol for `T1Y` ?
Return: TRUE

Enquiry: folding stability dG >= 3 kcal/mol for `F6M` ?
Return: FALSE

Enquiry: folding stability dG >= 3 kcal/mol for `T5A` ?
Return: FALSE

Enquiry: folding stability dG >= 3 kcal/mol for `E2Y` ?
Return: TRUE

Enquiry: folding stability dG >= 3 kcal/mol for `F6S` ?
Return: FALSE

Enquiry: folding stability dG >= 3 kcal/mol for `T5H` ?
Return: FALSE

Enquiry: folding stability dG >= 3 kcal/mol for `T27G` ?
Return: FALSE

Enquiry: folding stability dG >= 3 kcal/mol for `K13H` ?
Return: FALSE

Enquiry: folding stability dG >= 3 kcal/mol for `F6E` ?
Return: FALSE

Enquiry: folding stability dG >= 3 kcal/mol for `E9I` ?
Return: FALSE

Enquiry: folding stability dG >= 3 kcal/mol for `R30S` ?
Return: FALSE

Enquiry: folding stability dG >= 3 kcal/mol for `F39A` ?
Return: FALSE

Enquiry: folding stability dG >= 3 kcal/mol for `G23T` ?
Return: FALSE

Enquiry: folding stability dG >= 3 kcal/mol for `S8F` ?
Return: FALSE

Enquiry: folding stability dG >= 3 kcal/mol for `F39Y` ?
Return: TRUE

Enquiry: folding stability dG >= 3 kcal/mol for `E18Q` ?
Return: FALSE

Enquiry: folding stability dG >= 3 kcal/mol for `R4Y` ?
Return: TRUE

Enquiry: folding stability dG >= 3 kcal/mol for `T25S` ?
Return: FALSE

Enquiry: folding stability dG >= 3 kcal/mol for `A15Q` ?
Return: FALSE

Enquiry: folding stability dG >= 3 kcal/mol for `T3I` ?
Return: TRUE

Enquiry: folding stability dG >= 3 kcal/mol for `D40R` ?
Return: FALSE

Enquiry: folding stability dG >= 3 kcal/mol for `E36W` ?
Return: FALSE

Enquiry: folding stability dG >= 3 kcal/mol for `T5G` ?
Return: FALSE

Enquiry: folding stability dG >= 3 kcal/mol for `E20K` ?
Return: FALSE

Enquiry: folding stability dG >= 3 kcal/mol for `D33F` ?
Return: FALSE

Enquiry: folding stability dG >= 3 kcal/mol for `A19V` ?
Return: FALSE

Enquiry: folding stability dG >= 3 kcal/mol for `E9R` ?
Return: FALSE

Enquiry: folding stability dG >= 3 kcal/mol for `D40S` ?
Return: TRUE
